# target-desc: HbO2 (Homo sapiens, UniProt P68871+P69905)
# Construct: The Hb released by hemolysis was filtered and collected, with the red blood cell membrane components (stroma) separated and removed; from tissue; host or cells: human red blood cells (expired donated blood); heat-treated, nanofiltered, purified and concentrated HbCO, photoconverted to HbO2
# Sequence (P69905 2-142 limits assumed): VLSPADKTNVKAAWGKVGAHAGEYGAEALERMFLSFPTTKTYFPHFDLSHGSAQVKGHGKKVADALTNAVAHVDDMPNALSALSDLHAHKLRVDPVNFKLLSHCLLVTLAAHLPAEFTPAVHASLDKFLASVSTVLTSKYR
# Sequence (P68871 2-147 limits assumed): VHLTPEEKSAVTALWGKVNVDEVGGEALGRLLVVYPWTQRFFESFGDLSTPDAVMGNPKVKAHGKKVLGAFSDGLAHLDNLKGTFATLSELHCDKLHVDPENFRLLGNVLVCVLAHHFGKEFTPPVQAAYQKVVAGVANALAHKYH
# assay-protocol: Screening of suppressing effect of compounds against autoxidation of HbO2
# Assay type: biochemical
# setup-conditions: HbO2 10 g/dL, antioxidant 1 g/dL, 37° C., 24 hours
outcome-measure: metHb conversion (%)
Give your result in % as a bare value.

// known answers, use as guide
{"columns": ["molecule", "target-desc", "metHb conversion (%)"],
 "data": [
  ["NC(=O)C[C@H](N)C(=O)O [L-asparagine]", "HbO2 (Homo sapiens, UniProt P68871+P69905)", 40],
  ["NC(=O)C1=CN([C@@H]2O[C@H](COP(=O)(O)OP(=O)(O)OC[C@H]3O[C@@H](n4cnc5c(N)ncnc54)[C@H](O)[C@@H]3O)[C@@H](O)[C@H]2O)C=CC1 [NADH, nicotinamide adenine dinucleotide (NADH)]", "HbO2 (Homo sapiens, UniProt P68871+P69905)", 17],
  ["O=C([O-])[C@H](O)[C@@H](O)[C@H](O)[C@H](O)CO.[Na+] [sodium gluconate]", "HbO2 (Homo sapiens, UniProt P68871+P69905)", 49],
  ["N[C@@H](Cc1c[nH]cn1)C(=O)O [L-histidine]", "HbO2 (Homo sapiens, UniProt P68871+P69905)", 32],
  ["CC1=C(/C=C/C(C)=C/C=C/C(C)=C/C=C/C=C(C)/C=C/C=C(C)/C=C/C2=C(C)C(=O)[C@@H](O)CC2(C)C)C(C)(C)C[C@H](O)C1=O [astaxanthin]", "HbO2 (Homo sapiens, UniProt P68871+P69905)", 39]
]}

(Q) Field request: metHb conversion (%) | item: NC(=O)c1cccnc1 [nicotinamide]
(A) 34

(Q) Entry OCC(O)CO [glycerol] has what metHb conversion (%)?
(A) 38

(Q) I have this molecule here, N[C@@H](Cc1ccc(O)cc1)C(=O)O [L-tyrosine] , and I need its recorded metHb conversion (%).
(A) 38

---

# target-desc: HbO2 (Homo sapiens, UniProt P68871+P69905)
# Construct: The Hb released by hemolysis was filtered and collected, with the red blood cell membrane components (stroma) separated and removed; from tissue; host or cells: human red blood cells (expired donated blood); heat-treated, nanofiltered, purified and concentrated HbCO, photoconverted to HbO2
# assay-protocol: Screening of suppressing effect of compounds against autoxidation of HbO2
# Assay type: biochemical
# setup-conditions: HbO2 10 g/dL, antioxidant 1 g/dL, 37° C., 24 hours
# Experimental: NADH was purchased from Oriental Yeast Co. Ltd., and all the rest were purchased from Sigma-Aldrich (St. Louis, Mo., USA). […] The conversion ratios to metHb were determined from the visible absorption spectrum. […] The atmosphere inside of a Thunberg cuvette was replaced with nitrogen gas and the conversion ratios to metHb were determined from the ratios of absorbance at 405 nm (λmax of metHb) and 430 nm (λmax of deoxyHb).
// reported metHb conversion (%) for each item listed
Please state the figure in %; there is no need to write the unit.

{"columns": ["compound", "result-units", "metHb conversion (%)"],
 "data": [
  ["N[C@@H](CS)C(=O)O", "%", 34],
  ["O=C1O[C@H]([C@@H](O)CO)C([O-])=C1O.[Na+] [sodium L-Ascorbate]", "%", 37],
  ["N[C@@H](Cc1c[nH]c2ccccc12)C(=O)O", "%", 38],
  ["NC(=O)CC[C@H](N)C(=O)O", "%", 43],
  ["CSCC[C@H](N)C(=O)O", "%", 41]
]}

(Q) State its metHb conversion (%) on HbO2 (Homo sapiens, UniProt P68871+P69905): O=c1c(O)c(-c2ccc(O)c(O)c2)oc2cc(O)cc(O)c12
(A) 42
